Assignment: determine reported koff for the given binders.
# assay_system: T1, HIS-tagged human NKG2D (human, UniProt P26718 73-216, limits assumed)
# T1 construct: Captured on HIS1K biosensors; not shown: HIS tag
# T1 sequence (looked up): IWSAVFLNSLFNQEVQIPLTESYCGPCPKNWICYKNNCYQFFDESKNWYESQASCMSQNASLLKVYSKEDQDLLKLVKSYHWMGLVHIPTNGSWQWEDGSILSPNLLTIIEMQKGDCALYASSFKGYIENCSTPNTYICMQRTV
# procedure_summary: Octet (BLI): His-tagged human NKG2D captured on HIS1K biosensors, dipped into 100 nM bivalent mAb
Answers are plain numbers, in s⁻¹.

{"binder": "XENP27606 (antibody, human IgG1, kappa, V domains shown, humanized bivalent anti-NKG2D mAb, IgG1 with ablation variants; also called mAb B[NKG2D]_H3L2_IgG1_PVA_/S267K) VH: EVQLVESGGGLVQPGGSLRLSCAASGYTFTSYWMNWVRQAPGKGLVWVSRIDPYDSETHYNQKVKGRFTISVDKAKSTAYLQMNSLRAEDTAVYYCAKMGDYSFDYWGQGTLVTVSS VL: DIQLTQSPDSLAVSLGERATINCKASGNIHNYLAWYQQKPGQSPKVLVYNAKTLADGVPSRFSGSGSGTDYTLTISSLQAEDVAVYYCQHFWSTTWTFGGGTKVEIKR", "units_of_measure": "s⁻¹", "koff": 0.00204}
{"binder": "XENP27610 (antibody, human IgG1, kappa, V domains shown, humanized bivalent anti-NKG2D mAb, IgG1 with ablation variants; also called mAb C[NKG2D]_H2L2_IgG1_PVA_/S267K) VH: QVQLVQSGAEVKKPGASVKVSCKVSGFSLTIYGVHWVRQAPGQGLEWMGVIWSGGSTDYNAKFQGRVTMTKDNSKRTVYMELSSLRSEDTAVYYCSRKSHDGYYGVMDYWGQGTTVTVSS VL: DIQLTQSPSSLSASVGDRVTITCRASQSIGTSIHWYQQKPGKSPKLLIKYASESISGIPSRFSGSGSGTDFTLTISSLQPEDFATYYCQQSNTWPLTFGAGTKVEIKR", "units_of_measure": "s⁻¹", "koff": 0.000145}
{"binder": "XENP27605 (antibody, human IgG1, kappa, V domains shown, humanized bivalent anti-NKG2D mAb, IgG1 with ablation variants; also called mAb B[NKG2D]_H3_L1.1_IgG1_PVA_/S267K) VH: EVQLVESGGGLVQPGGSLRLSCAASGYTFTSYWMNWVRQAPGKGLVWVSRIDPYDSETHYNQKVKGRFTISVDKAKSTAYLQMNSLRAEDTAVYYCAKMGDYSFDYWGQGTLVTVSS VL: DIQLTQSPSSLSASVGDRVTITCRASGNIHNYLAWYQQKPGKSPKVLVYNAKTLADGVPSRFSGSGSGTDYTLTISSLQPEDFATYYCQHFWSTPWTFGGGTKVEIKR", "units_of_measure": "s⁻¹", "koff": 0.00943}
{"binder": "XENP27607 (antibody, human IgG1, kappa, V domains shown, humanized bivalent anti-NKG2D mAb, IgG1 with ablation variants; also called mAb C[NKG2D]_H1L1_IgG1_PVA_/S267K) VH: EVQLVESGGGLVQPGGSLRLSCAVSGFSLTIYGVHWVRQAPGKGLEWVSVIWSGGSTDYNAKVKGRFTISKDNSKRTVYLQMNSLRAEDTAVYYCSRKSHDGYYGVMDYWGQGTTVTVSS VL: DIQLTQSPDFQSVTPKEKVTITCRASQSIGTSIHWYQQKPDQSPKLLIKYASESISGIPSRFSGSGSGTDFTLTINSLEAEDAATYYCQQSNTWPLTFGAGTKVEIKR", "units_of_measure": "s⁻¹", "koff": 0.000357}
{"binder": "XENP27599 (antibody, human IgG1, kappa, V domains shown, humanized bivalent anti-NKG2D mAb, IgG1 with ablation variants; also called mAb B[NKG2D]_H1_L1.1_IgG1_PVA_/S267K) VH: QVQLVQSGAEVKKPGASVKVSCKASGYTFTSYWMNWVRQAPGQGLEWMGRIDPYDSETHYNQKFQGRVTMTVDKSTSTAYMELSSLRSEDTAVYYCAKMGDYSFDYWGQGTLVTVSS VL: DIQLTQSPSSLSASVGDRVTITCRASGNIHNYLAWYQQKPGKSPKVLVYNAKTLADGVPSRFSGSGSGTDYTLTISSLQPEDFATYYCQHFWSTPWTFGGGTKVEIKR", "units_of_measure": "s⁻¹", "koff": 0.00169}
{"binder": "XENP27609 (antibody, human IgG1, kappa, V domains shown, humanized bivalent anti-NKG2D mAb, IgG1 with ablation variants; also called mAb C[NKG2D]_H2L1_IgG1_PVA_/S267K) VH: QVQLVQSGAEVKKPGASVKVSCKVSGFSLTIYGVHWVRQAPGQGLEWMGVIWSGGSTDYNAKFQGRVTMTKDNSKRTVYMELSSLRSEDTAVYYCSRKSHDGYYGVMDYWGQGTTVTVSS VL: DIQLTQSPDFQSVTPKEKVTITCRASQSIGTSIHWYQQKPDQSPKLLIKYASESISGIPSRFSGSGSGTDFTLTINSLEAEDAATYYCQQSNTWPLTFGAGTKVEIKR", "units_of_measure": "s⁻¹", "koff": "8.64e-05"}
{"binder": "XENP27597 (antibody, human IgG1, lambda, V domains shown, bivalent anti-NKG2D mAb, IgG1 with ablation variants; also called KYK-1.0[NKG2D]_H1L1_IgG1_PVA_/S267K) VH: EVQLVESGGGVVQPGGSLRLSCAASGFTFSSYGMHWVRQAPGKGLEWVAFIRYDGSNKYYADSVKGRFTISRDNSKNTKYLQMNSLRAEDTAVYYCAKDRFGYYLDYWGQGTLVTVSS VL: QPVLTQPSSVSVAPGETARIPCGGDDIETKSVHWYQQKPGQAPVLVIYDDDDRPSGIPERFFGSNSGNTATLSISRVEAGDEADYYCQVWDDNNDEWVFGGGTQLTVLG", "units_of_measure": "s⁻¹", "koff": 0.00113}

With those in mind, consider the next binder.
Lookup: What value of koff has been reported for the following binder? XENP27604 (antibody, human IgG1, kappa, V domains shown, humanized bivalent anti-NKG2D mAb, IgG1 with ablation variants; also called mAb B[NKG2D]_H3L1_IgG1_PVA_/S267K) VH: EVQLVESGGGLVQPGGSLRLSCAASGYTFTSYWMNWVRQAPGKGLVWVSRIDPYDSETHYNQKVKGRFTISVDKAKSTAYLQMNSLRAEDTAVYYCAKMGDYSFDYWGQGTLVTVSS VL: DIQLTQSPSSLSASVGDRVTITCRASGNIHNYLAWYQQKPGKSPKVLVYNAKTLADGVPSRFSGSGSGTDYTLTISSLQPEDFATYYCQHFWSTTWTFGGGTKVEIKR
Found: 0.00194
